assayProcedure: qHTS for Inhibitors of the Functional Ribonucleoprotein Complex (vRNP) of Lassa (LASV) Arenavirus: LASV Primary Screen - GLuc reporter signal (AID 1347082); note: nearly all actives have a fitted effect of over 60% in size
conditionSet: LASV minigenome vRNP, Gaussia luciferase reporter; series mostly up to 57.5 µM
Results filed as inconclusive are left out. Active and inactive are the calls of the source. Calls come from the whole dose curve; tested in HEK293 reporter line.
Labels: active, inactive

| molecule | groupLabel |
| --- | --- |
| Cc1ccc2c(c1)C(=O)[C@]1(O)CCN(c3ccccc3)C1=N2 | inactive |
| COc1cc(C=CC(=O)O)ccc1O | inactive |
| CC(=O)O[C@H]1C[C@H](O[C@H]2[C@@H](O)C[C@H](O[C@H]3[C@@H](O)C[C@H](OC4CC[C@@]5(C)C(CC[C@@H]6[C@@H]5CC[C@]5(C)[C@@H](C7=CC(=O)OC7)[C@@H](O)C[C@]65O)C4)O[C@@H]3C)O[C@@H]2C)O[C@H](C)[C@H]1O[C@@H]1O[C@H](CO)[C@@H](O)[C@H](O)[C@H]1O (some centres undefined) | active |
| N[C@@H](Cn1ccc(=O)c(O)c1)C(=O)O | inactive |
| COc1cccc2c1cc([N+](=O)[O-])c1c(C(=O)O)cc3c(c12)OCO3 | inactive |
| O=C(NCCCCNCCCNC(=O)c1ccccc1)c1ccccc1 | inactive |
| Nc1nc(F)nc2c1ncn2[C@@H]1O[C@H](COP(=O)(O)O)[C@@H](O)[C@H]1O | inactive |
| C=C1C[C@@]23CC[C@H]4[C@@](C)(CCC[C@@]4(C)C(=O)OC4OC(CO)C(O)C(O)C4O)[C@@H]2CC[C@]1(OC1OC(CO)C(O)C(O)C1OC1OC(CO)C(O)C(O)C1O)C3 (some centres undefined) | inactive |
| N#C/C(=C\c1ccc(O)c(O)c1)C(=O)NCCCc1ccccc1 | inactive |
| O=c1[nH]c(=O)n([C@H]2C[C@@H](O)[C@@H](CO)O2)cc1I | inactive |
| CC1(C)OC2CC3C4CC(F)C5=CC(=O)C=CC5(C)C4C(O)CC3(C)[C@]2(C(=O)CO)O1 (some centres undefined) | inactive |
| C=C[C@@H]1CN2CCC1C[C@@H]2C(O)c1ccnc2ccc(OC)cc12 (some centres undefined) | inactive |
| O=C[C@H](O)[C@@H](O)[C@H](O[C@H]1O[C@H](CO)[C@@H](O[C@H]2O[C@H](CO)[C@@H](O)[C@H](O)[C@H]2O)[C@H](O)[C@H]1O)[C@H](O)CO | inactive |
| COc1ccc([C@@H]2CC(=O)c3c(O)cc(O[C@@H]4O[C@H](CO[C@@H]5O[C@@H](C)[C@H](O)[C@@H](O)[C@@H]5O)[C@@H](O)[C@H](O)[C@@H]4O)cc3O2)cc1O | inactive |
| NC(=O)Nc1sc(-c2ccc(F)cc2)cc1C(N)=O | active |
| C=C/C(C)=C/C/C=C(\C)CCC=C(C)C | inactive |
| NC(=O)c1cccc2cn(-c3ccc([C@@H]4CCCNC4)cc3)nc12 | inactive |
| CC1=CC=C(C(C)C)CC1 | inactive |
| NS(=O)(=O)c1ccc(Nc2nc(OCC3CCCCC3)c3[nH]cnc3n2)cc1 | inactive |
| O=C1/C(=C/c2ccsc2)CC/C1=C\c1cccs1 | inactive |
| COC(=O)Cc1ccccc1 | inactive |
| CC1(C)CCC[C@@]2(C)C1CC[C@@](C)(O)[C@@H]2CC[C@@](C)(O)C1CO1 (some centres undefined) | inactive |
| Cc1cc(CS(=O)(=O)c2ccccc2)cc(OCc2ccc(CN3CCC[C@H]3CO)cc2)c1 | inactive |
| COC(=O)C1=CO[C@@H](C)[C@@H]2CN3CCc4c([nH]c5ccccc45)[C@@H]3C[C@H]12 | inactive |
| COc1ccc(-c2oc3cc(OC)c(O)c(OC)c3c(=O)c2OC)cc1O | inactive |
| COc1ccc(-c2cc(=O)c3ccc(O)cc3o2)cc1 | inactive |
| c1coc(CNc2ncnc3nc[nH]c23)c1 | inactive |
| C/C=C/C=C/CO | inactive |
| CN1CC(CO)=C[C@H]2c3cccc4[nH]cc(c34)C[C@H]21 | inactive |
| C[C@](Cc1c[nH]c2ccccc12)(NC(=O)OC1C2CC3CC(C2)CC1C3)C(=O)NC[C@H](NC(=O)CCC(=O)O)c1ccccc1 (some centres undefined) | inactive |
| N=C(N)c1ccc(N)cc1 | inactive |
| NC(=O)c1cc[n+](CC2=C(C(=O)O)N3C(=O)[C@@H](NC(=O)[C@@H](c4ccccc4)S(=O)(=O)[O-])[C@H]3SC2)cc1 | inactive |
| NCc1c[nH]c(=S)n1[C@H]1CCc2c(F)cc(F)cc2C1 | inactive |
| Nc1ncnc2c1ncn2[C@@H]1O[C@@H](CO)[C@H](O)[C@H]1O | inactive |
| O=C(O)CC1CCCc2ccccc2C1O (centres undefined) | inactive |
| O=c1onc2cnc3ccccc3n12 | inactive |
| O=Cc1ccnc2ccccc12 | inactive |
| CCCC1O[C@@H]2C[C@H]3[C@@H]4CCC5=CC(=O)C=C[C@]5(C)[C@H]4[C@@H](O)C[C@]3(C)[C@]2(C(=O)CO)O1 (some centres undefined) | inactive |
| COc1cc2c(c(OC)c1OC)-c1c(cc3c(c1OC)OCO3)CC(C)C(C)C2 (centres undefined) | inactive |
